The reported measurements were obtained from ChEMBL document CHEMBL1124529.

Experiment: Anticonvulsant activity of the compound,0.25 h after administration in mice subjected to rotarod toxicity test
Type: organism-based
Conditions: mouse, in vivo
TEST READOUT: TD50 at 0.25 h (mg/kg)
Hi! Could you send only the number? It should be in mg/kg, unit omitted.

Look up TD50 at 0.25 h: "O=C1O[C@]2(c3ccccc3)CCCCCN1C2=O"
334

----------
Test: Anticonvulsant activity of the compound,0.5 hr after administration in mice subjected to rotarod toxicity test
Type: organism-based
Conditions: mouse, in vivo
# strict inequality: TD50 at 0.5 h < 200 mg/kg yields 1, everything else yields -1

Check out these entries, answers already filled in.
Strictly below 200 mg/kg in TD50 at 0.5 h? "CC[C@@]1(c2ccccc2)OC(=O)NC1=O"
1

Strictly below 200 mg/kg in TD50 at 0.5 h? "O=C1O[C@@]2(c3ccccc3)CCCCCN1C2=O"
1

Strictly below 200 mg/kg in TD50 at 0.5 h? "CC[C@]1(c2ccccc2)OC(=O)N(C)C1=O"
-1

Strictly below 200 mg/kg in TD50 at 0.5 h? "CC[C@@]1(c2ccccc2)OC(=O)N(C)C1=O"
-1

Strictly below 200 mg/kg in TD50 at 0.5 h? "CC[C@]1(c2ccccc2)OC(=O)NC1=O"
1

Continue with the molecule presented below.
Strictly below 200 mg/kg in TD50 at 0.5 h? O=C1OC2(c3ccccc3)CCCCCN1C2=O (racemic)
1
